Hey, just so you know, these numbers are from patent EP1803452A1.

- experiment: Metabolic stability test in liver S9
- Type: in vitro ADME
- assay conditions: pH 7.4; unchanged form after 10 minutes at 37°C, human liver S9 2 mg protein/mL, LC/MS; read-out: Remaining rate in human liver S9 (%/10min)
- Method: Human liver S9 (final concentration: 2 mg protein/mL), was suspended in 100 mM potassium phosphate buffer (pH 7.4, containing β-nicotinamide adenine dinucleotide phosphate: 1.3 mM, D-glucose-6- phosphate: 3.3 mM, magnesium chloride: 3.3 mM, glucose-6-phosphate dehydrogenase:0.4 U/mL). […] The solutions were centrifuged, and the concentration of the sample (unchanged form) in the supernatant was determined by high performance liquid chromatography/mass spectrometry (LC/MS). […]
Criterion: remaining at 10 min strictly less than 4%. Met: criterion met. Not met: criterion not met.

• COc1cc(C(=O)OC(C)C)cc(Cl)c1OC(=O)CCCc1ccc(NC(=O)c2ccc(C)nc2-c2ccc(C(F)(F)F)cc2)c(C(=O)N(C)C)c1 = criterion not met
• CCc1cc(C(=O)OC)cc(Cl)c1OC(=O)CCCc1ccc(NC(=O)c2ccc(C)nc2-c2ccc(C(F)(F)F)cc2)c(C(=O)N(C)C)c1 = criterion not met
• COC(=O)c1ccc(-c2nc(C)ccc2C(=O)Nc2ccc(CCCC(=O)Oc3c(C)cc(C(=O)OC)cc3C(=O)OC)cc2C(=O)N(C)C)cc1 = criterion met
• CCOC(=O)c1ccc(OC(=O)CCCc2ccc(NC(=O)c3ccc(C)nc3-c3ccc(C(F)(F)F)cc3)c(C(=O)N(C)C)c2)cc1 = criterion met
• COC(=O)c1cc(OC)c(OC(=O)CCCc2ccc(NC(=O)c3ccc(C)nc3-c3ccc(C(F)(F)F)cc3)c(C(=O)N(C)C)c2)c(OC)c1 = criterion not met
• COC(=O)c1ccc(OC(=O)CCCc2ccc(NC(=O)c3ccc(C)nc3-c3ccc(C(F)(F)F)cc3)c(C(=O)N(C)C)c2)cn1 = criterion met

----------
- experiment: Stability test in buffer (pH 7.4)
- Type: physicochemical
- assay conditions: phosphate buffer/acetonitrile 7:3; 60 minutes at 37°C, 100 mM potassium phosphate buffer (pH 7.4) and acetonitrile 7:3 (v/v), LC/MS; read-out: Buf. remaining rate (%/60min)
quantity kind: remaining at 1 h (%)

• CN(C)C(=O)COC(=O)c1ccc(OC(=O)CCCc2ccc(NC(=O)c3ccccc3-c3ccc(C(F)(F)F)cc3)c(C(=O)N(C)C)c2)cc1 = 102
• CC(C)OCCOC(=O)c1ccc(OC(=O)CCCc2ccc(NC(=O)c3ccccc3-c3ccc(C(F)(F)F)cc3)c(C(=O)N(C)C)c2)cc1 = 100
• COC(=O)c1cc(C(=O)OC(C)C)cc(C)c1OC(=O)CCCc1ccc(NC(=O)c2ccc(C)nc2-c2ccc(C(F)(F)F)cc2)c(C(=O)N(C)C)c1 = 99
• COC(=O)c1cc(C)c(OC(=O)CCCc2ccc(NC(=O)c3ccc(C)nc3-c3ccc(C(F)(F)F)cc3)c(C(=O)N(C)C)c2)c(C)c1 = 104
• Cc1cccc(COC(=O)c2ccc(OC(=O)CCCc3ccc(NC(=O)c4ccccc4-c4ccc(C(F)(F)F)cc4)c(C(=O)N(C)C)c3)cc2)n1 = 103
• COC(=O)c1cc(C)c(OC(=O)CCCc2ccc(NC(=O)c3ccc(C)nc3-c3ccc(C(F)(F)F)cc3)c(C(=O)N(C)C)c2)c(F)c1 = 106
• COC(=O)c1ccc(OC(=O)CCCc2ccc(NC(=O)c3ccccc3-c3ccc(C(F)(F)F)cn3)c(C(=O)N(C)C)c2)cc1 = 100
• CN(C)C(=O)c1cc(CCCC(=O)Oc2ccc(C(=O)OCc3ccncc3)cc2)ccc1NC(=O)c1ccccc1-c1ccc(C(F)(F)F)cc1 = 101
• COC(=O)c1cc(Br)c(OC(=O)CCCc2ccc(NC(=O)c3ccc(C)nc3-c3ccc(C(F)(F)F)cc3)c(C(=O)N(C)C)c2)c(OC)c1 = 103
• COC(=O)c1ccc(-c2nc(C)ccc2C(=O)Nc2ccc(CCCC(=O)Oc3c(C)cc(C(=O)OC)cc3Cl)cc2C(=O)N(C)C)cc1 = 101
• CCCOC(=O)c1cc(Cl)c(OC(=O)CCCc2ccc(NC(=O)c3ccc(C)nc3-c3ccc(C(F)(F)F)cc3)c(C(=O)N(C)C)c2)c(OC)c1 = 124
• COc1cc(C(=O)OC(C)C)cc(OC)c1OC(=O)CCCc1ccc(NC(=O)c2ccc(C)nc2-c2ccc(C(F)(F)F)cc2)c(C(=O)N(C)C)c1 = 100

----------
- experiment: Stability test in buffer (pH 7.4)
- Assay type: physicochemical
- assay conditions: phosphate buffer/acetonitrile 7:3; 10 minutes at 37°C, 100 mM potassium phosphate buffer (pH 7.4) and acetonitrile 7:3 (v/v), LC/MS; read-out: Buf. remaining rate (%/10min)
quantity kind: remaining at 10 min

• CCOC(=O)c1ccc(OC(=O)CCCc2ccc(NC(=O)c3ccccc3-c3ccc(C(F)(F)F)cc3)c(C(=O)N3CCCC3)c2)c(F)c1 = 98%
• COC(=O)c1ccc(-c2nc(C)ccc2C(=O)Nc2ccc(CCCC(=O)Oc3c(C)cc(C(=O)OC)cc3Cl)cc2C(=O)N(C)C)cc1 = 99%
• CN(C)C(=O)c1cc(CCCC(=O)Oc2ccc(C(=O)OCc3ccccn3)cc2)ccc1NC(=O)c1ccccc1-c1ccc(C(F)(F)F)cc1 = 100%
• CCc1cc(C(=O)OC)ccc1OC(=O)CCCc1ccc(NC(=O)c2ccccc2-c2ccc(C(F)(F)F)cc2)c(C(=O)N(C)C)c1 = 103%
• COC(=O)c1ccc(OC(=O)CCCc2ccc(NC(=O)c3ccccc3-c3ccc(C(F)(F)F)cc3)c(C(=O)N(C)C)c2)cc1OC = 100%
• COC(=O)c1ccc(OC(=O)CCCc2ccc(NC(=O)c3ccccc3-c3ccc(C(F)(F)F)cn3)c(C(=O)N(C)C)c2)cc1 = 107%
• CCOC(=O)c1cc(OC)c(OC(=O)CCCc2ccc(NC(=O)c3ccc(C)nc3-c3ccc(C(F)(F)F)cc3)c(C(=O)N(C)C)c2)c(C(=O)OC)c1 = 97%
• CC(=O)N1CCC(OC(=O)c2ccc(OC(=O)CCCc3ccc(NC(=O)c4ccccc4-c4ccc(C(F)(F)F)cc4)c(C(=O)N(C)C)c3)cc2)CC1 = 99%
• CN(C)C(=O)c1cc(CCCC(=O)Oc2ccc(C(=O)OC3CCc4ccccc43)cc2)ccc1NC(=O)c1ccccc1-c1ccc(C(F)(F)F)cc1 (stereo not drawn) = 98%
• COc1ccc(COC(=O)c2ccc(OC(=O)CCCc3ccc(NC(=O)c4ccccc4-c4ccc(C(F)(F)F)cc4)c(C(=O)N(C)C)c3)cc2)cc1 = 100%
• COC(=O)c1cc(C)c(OC(=O)CCCc2ccc(NC(=O)c3ccccc3-c3ccc(C(F)(F)F)cc3)c(C(=O)N(C)C)c2)c(C)c1 = 100%
• CN(C)C(=O)c1cc(CCCC(=O)Oc2ccc(C(=O)OCCOCc3ccccc3)cc2)ccc1NC(=O)c1ccccc1-c1ccc(C(F)(F)F)cc1 = 102%
• CN(C)C(=O)c1cc(CC(=O)Oc2ccccc2)ccc1NC(=O)c1ccccc1-c1ccc(C(F)(F)F)cc1 = 101%
• COC(=O)c1ccc(OC(=O)CCCc2ccc(NC(=O)c3ccncc3-c3ccc(C(F)(F)F)cc3)c(C(=O)N(C)C)c2)cc1 = 99%
• COC(=O)c1ccc(OC(=O)C2CCN(c3ccc(NC(=O)c4ccccc4-c4ccc(C(F)(F)F)cc4)c(C(=O)N(C)C)c3)CC2)c(F)c1 = 94%
• CN(C)C(=O)c1cc(CCCC(=O)Oc2ccc(C(=O)OCc3ccccc3)cc2)ccc1NC(=O)c1ccccc1-c1ccc(C(F)(F)F)cc1 = 95%
• COC(=O)c1cc(C)c(OC(=O)CCCc2ccc(NC(=O)c3ccc(C)nc3-c3ccc(C(F)(F)F)cc3)c(C(=O)N(C)C)c2)c(C(F)(F)F)c1 = 101%
• COC(=O)c1cc(Cl)c(OC(=O)CCCc2ccc(NC(=O)c3ccc(C)nc3-c3ccc(C(F)(F)F)cc3)c(C(=O)N(C)C)c2)c(C(C)C)c1 = 102%
• CN(C)C(=O)c1cc(CC(=O)Oc2ccc(F)cc2)ccc1NC(=O)c1ccccc1-c1ccc(C(F)(F)F)cc1 = 99%
• CC(C)OC(=O)c1ccc(OC(=O)CCCc2ccc(NC(=O)c3cccnc3-c3ccc(C(F)(F)F)cc3)c(C(=O)N(C)C)c2)cc1 = 101%
• COc1cc(C(=O)OC(C)C)cc(Cl)c1OC(=O)CCCc1ccc(NC(=O)c2ccc(C)nc2-c2ccc(C(F)(F)F)cc2)c(C(=O)N(C)C)c1 = 99%
• Cc1ccc(C(=O)Nc2ccc(CCCC(=O)Oc3ccc(C(=O)OCc4ccccc4)cc3)cc2C(=O)N(C)C)c(-c2ccc(C(F)(F)F)cc2)n1 = 100%
• CN(C)C(=O)c1cc(CCCC(=O)Oc2ccc(C(=O)OCc3ccc(C(=O)OC(C)(C)C)cc3)cc2)ccc1NC(=O)c1ccccc1-c1ccc(C(F)(F)F)cc1 = 105%
• COC(=O)c1ccc(OC(=O)CCCc2ccc(NC(=O)c3ccccc3-c3ccc(C(F)(F)F)cc3)c(C(=O)N3CCCC3)c2)cc1 = 98%
